Molecular target: T1, KA peptide (Octet assay of PS621 variants)
T1 construct: XAKLDEESILKQK with X = K
T1 peptide: KAKLDEESILKQK
Experiment: Octet (BLI), 30 C
Note to self: class = bucket of Octet response, per lo (below 4), med (4 to below 5), hi (5 or more)

Task: Determine which band this binder sits in: PS1102 (designed binder, Variant of PS621) MHSKFSHAGRICGAKFKVGEPIYRCKECQFDDTCVLCVNCFNPKDHTGHHVYTTICTEFNNGICDCGDKEAWNHTLFCKAEEG
Output: hi

Task: What about this binder? PS1122 (designed binder, Variant of PS621 (T47L, I63E, E70T)) MHSKFSHAGRICGAKFKVGEPIYRCKECSFDDTCVLCVNCFNPKDHLGHHVYTTICTEFNNGECDCGDKTAWNHTLFCKAEEG
Output: med

Task: What about this binder? PS1114 (designed binder, Variant of PS621) MHSKFSHAGRICGAKFKVGEPIYRCKECSFDDTCVLCVNCFNPKDHRGHHVYTTICTERNNGICDCGDKEAWNHTLFCKAEEG
Output: hi

Task: What about this binder? PS1106 (designed binder, Variant of PS621) MHSKFSHAGRICGAKFKVGEPIYRCKECSFDDTCVLCVNCFNPKDHTGHHVYVTICTEFNNGICDCGDKEAWNHTLFCKAEEG
Output: med

Task: What about this binder? PS1113 (designed binder, Variant of PS621) MHSKFSHAGRICGAKFKVGEPIYRCKECSFDDTCVLCVNCFNPKDHTGHHVYTTICTEFNNGICDCGDKEAWNKTLFCKAEEG
Output: lo

Task: What about this binder? PS1119 (designed binder, Variant of PS621) MHSKFSHAGRICGAKFKVGEPIYRCKECSFDDTCVLCVNCFNPKDHTGHHVYTTICKEFNNGICDCGDKEAWNHTLFCKAEEG
Output: lo

Task: What about this binder? PS1115 (designed binder, Variant of PS621) MHSKFSHAGRICGAKFKVGEPIYRCKECSFDDTCVLCVNCFNPKDHRGHHVYTTICTERNNGICDCGDKEAWNHELFCKAEEG
Output: hi

All values here come from patent US20240272170A1.
